# Test system: MS2 coat protein
# Measurement description: apparent KD of MS2 coat protein; designed switch direction (-1 OFF switch, 1 ON switch): 1; higher = weaker reporter binding
# Test settings: input ligand: none
Where apparent KD of MS2 coat protein equals or exceeds 100 nM, the correct label is TRUE; where it does not, the label is FALSE.

Field: example entries. Status: answers known.
Seq text	Cat
UAAUUAAAGCAAGGAUAUCACGUCGAAUAGACGUGAGAAGGUGCUCCUUACAUGAGGAUCACCCAUGUAUAACAUGAAUAAUUA [SSNG1/10-B1] (Eterna round: R96, puzzle: Same State NG 1)	TRUE
GUAAAGAAUUAAGGAUAUUGAAUACAUAUGUUUAACAUGAGGAUCACCCAUGUGGGUUGCGGUAUCGAGAAGGUAAAAUAAAAG [Mat - Same State NG 2 - JL mod - D7] (Eterna round: R96, puzzle: Same State NG 2)	TRUE
UGGCUCAGAGCAGGAUAUAUGUGAUCACAUGAGGAUCACCCAUGUCUCGAGCUUCGGCUCGAGACAUAGAAGGGCUCUGAGCCU [SSNG2/3-B3] (Eterna round: R96, puzzle: Same State NG 2)	TRUE
GUCCGUACCACAGGAUAUCCUAGUCAUGAUCUAGGAGAAGGGUGGCCACAUGAGGAUCACCCAUGUGAAGUGCCAGAGGCACGA [MOD Xexeraed] (Eterna round: R96, puzzle: Same State NG 1)	FALSE

With those in mind, consider the next sequence.
Please indicate if the recorded apparent KD of MS2 coat protein for GAGGAGGAUACAGGAUAUAUACAUGAGGAUCACACAUACAUGACAUGAGGAUCACCCAUGUUUGUAUAGAAGGGUAAGAGGAGG [Seems to be working] (Eterna round: R96, puzzle: Same State NG 2) meets or exceeds 100 nM.
FALSE

---

# System: MS2 coat protein
# Measurement description: apparent KD of MS2 coat protein; higher = weaker reporter binding
# Test settings: Eterna round: R107; input ligand: none
Readout label: apparent KD of MS2 coat protein
Express the reported value numerically, then name its unit.

Answered cases to consult:
> print(dat)
                                   seq.text      study.system  reported
1  AAUCGGACUCGUACAGCAUGUUGAGCGGAAGGAGCGGCGAAAGAGCCAGGUAGGUCGCCGCCGACAUGAGGAUCACCCAUGUACG [Orenti]  MS2 coat protein    119 nM
2  UUAAUCAUUAUAGAAAACUAUAAUGCAGAAGGAGCGUGAUAAAACACAGGUAGGUCGCUGAAGGGAACAUGAGGAUCACCCAUGU [AstrosSSArgA#6]  MS2 coat protein   30.3 nM

From here, focus on the item given below.
# lookup: apparent KD of MS2 coat protein of GCGAUGGAGCGAAGGAGCGGCUGUGACUACAUGAGGAUCACCCAUGUACGAUCGUAAGGUAGCCAGGUAGGUCGCGCUCCAUCGC [SSAB NP+V+V2 #17]
29.3 nM

---

# Test system: MS2 coat protein
# Measurement description: apparent KD of MS2 coat protein; designed switch direction (-1 OFF switch, 1 ON switch): 1; higher = weaker reporter binding
# Test settings: input ligand: microRNA oligo, concentration not stated
# apparent KD of MS2 coat protein values compiled below

Here's what some known entries look like.
Seq text	Reported
UGAAUAAUGUUAGGAUAUACAUGAGGAAUCCUCGUAGAAGGAACAUGACAUGAGGAUCACCCAUGUAGCGCUCAGAAGAGCGCA [Mat - Same State NG 1 - JL mod - D50] (Eterna round: R96, puzzle: Same State NG 1)	73.4 nM
CCCAGCGUUACAGGAUAUGGUGAGGAUCACCCACUAGAAGGGUAAACAUGUGCGUCGGACAUGAGGAUCACCCAUGUAGGGCGU (Eterna round: R96, puzzle: Same State NG 1)	17.9 nM
GCCGGCUGGUGAGGAUAUGGCACCUUAUUGGUGCCAGAAGGCAUGUCAAUUGACAUGAGGAUCACCCAUGUAUUAUAGUUGGCG [salish99_SSNG1_r04_605] (Eterna round: R96, puzzle: Same State NG 1)	69.3 nM
GUGGUGAAUUAAGGAUAUCGAGUCUAGAUGUUAAACAUGAGGAUCACCCAUGUGGGUUGCGGUAUCGAGAAGGUAAUUUACGGG [salish99_SSNG2_r04_507] (Eterna round: R96, puzzle: Same State NG 2)	26.1 nM

Please find the next sequence below.
Need apparent KD of MS2 coat protein of UUACGUACGUAUGAGGAUAUCCAUAAUAAGACAUGAGGAUCACCCAUGUAAACAAAACAAUAAUGGGAGAAGGCAUACGUACGAA [Mat - Same state - Malcolm Mod - D135] (Eterna round: R96, puzzle: Same State 2) , thanks.
53 nM
